run-description: Spectroscopic properties of CF library (absorbance, emission, quantum yield, extinction coefficient)
Assay type: physicochemical
assay-context: 100 μM in ethanol, reference fluorescein
result-type: QY (Φ)

Illustrative cases are given below, each with its answer.
O=C(NCCc1ccccc1F)c1ccc(-c2c3cc(Cl)c(=O)cc-3oc3cc(O)c(Cl)cc23)cc1 = 0.59
CC(C)N(Cc1ccccc1)C(=O)c1ccc(-c2c3cc(Cl)c(=O)cc-3oc3cc(O)c(Cl)cc23)cc1 = 0.78
CCCCN(CC)C(=O)c1ccc(-c2c3cc(Cl)c(=O)cc-3oc3cc(O)c(Cl)cc23)cc1 = 0.90

P. CC1CCCCC1NC(=O)c1ccc(-c2c3cc(Cl)c(=O)cc-3oc3cc(O)c(Cl)cc23)cc1 (stereo not shown)
Q. O=C(NCC1CCCCC1)c1ccc(-c2c3cc(Cl)c(=O)cc-3oc3cc(O)c(Cl)cc23)cc1
// pick min by QY (Φ): P , Q Reply briefly: the label of your chosen item.
Q
(Q: 0.27, P: 0.42)

1. O=C(CCCCc1ccccc1)c1ccc(-c2c3cc(Cl)c(=O)cc-3oc3cc(O)c(Cl)cc23)cc1
2. CCCCCCNC(=O)c1ccc(-c2c3cc(Cl)c(=O)cc-3oc3cc(O)c(Cl)cc23)cc1
Which is greater in QY (Φ), the first item 1 or the second item 2 ? Reply briefly: the label of your chosen item.
2

====

run-description: Spectroscopic properties of CF library (absorbance, emission, quantum yield, extinction coefficient)
Assay type: physicochemical
assay-context: 100 μM in ethanol
result-type: Abs (nm)

CCCCC(CC)COCCCNC(=O)c1ccc(-c2c3cc(Cl)c(=O)cc-3oc3cc(O)c(Cl)cc23)cc1 (centres unmarked) = 520
CC1CCC(NC(=O)c2ccc(-c3c4cc(Cl)c(=O)cc-4oc4cc(O)c(Cl)cc34)cc2)CC1 (centres unmarked) = 520
COCCN(CCOC)C(=O)c1ccc(-c2c3cc(Cl)c(=O)cc-3oc3cc(O)c(Cl)cc23)cc1 = 520
O=C(NCCc1ccccc1Cl)c1ccc(-c2c3cc(Cl)c(=O)cc-3oc3cc(O)c(Cl)cc23)cc1 = 520
O=C(NCc1c(Cl)cccc1Cl)c1ccc(-c2c3cc(Cl)c(=O)cc-3oc3cc(O)c(Cl)cc23)cc1 [CF-E2] = 520
O=C(NCCCN1CCCC1=O)c1ccc(-c2c3cc(Cl)c(=O)cc-3oc3cc(O)c(Cl)cc23)cc1 [CF-D2] = 520
C#CCNC(=O)c1ccc(-c2c3cc(Cl)c(=O)cc-3oc3cc(O)c(Cl)cc23)cc1 = 520
CCCN(CC1CC1)C(=O)c1ccc(-c2c3cc(Cl)c(=O)cc-3oc3cc(O)c(Cl)cc23)cc1 = 520

====

run-description: Spectroscopic properties of CF library (absorbance, emission, quantum yield, extinction coefficient)
Type: physicochemical
assay-context: 100 μM in ethanol
result-type: Em (nm)

O=C(NCCc1ccccc1-c1ccccc1)c1ccc(-c2c3cc(Cl)c(=O)cc-3oc3cc(O)c(Cl)cc23)cc1 [CF-H9] = 558
O=C(NC1Cc2ccccc2C1)c1ccc(-c2c3cc(Cl)c(=O)cc-3oc3cc(O)c(Cl)cc23)cc1 [CF-D8] = 558
C#CCNC(=O)c1ccc(-c2c3cc(Cl)c(=O)cc-3oc3cc(O)c(Cl)cc23)cc1 [CF-F11] = 559
CCOC(=O)N1CCC(NC(=O)c2ccc(-c3c4cc(Cl)c(=O)cc-4oc4cc(O)c(Cl)cc34)cc2)CC1 [CF-G6] = 556
CCCCC(CC)CNC(=O)c1ccc(-c2c3cc(Cl)c(=O)cc-3oc3cc(O)c(Cl)cc23)cc1 (stereo not shown) [CF-B9] = 558
CCCCCCCCCN(CCCCCCCCC)C(=O)c1ccc(-c2c3cc(Cl)c(=O)cc-3oc3cc(O)c(Cl)cc23)cc1 [CDg13] = 553
CC(Cc1ccccc1)NC(=O)c1ccc(-c2c3cc(Cl)c(=O)cc-3oc3cc(O)c(Cl)cc23)cc1 (stereo not shown) [CF-A6] = 557
